# credit: ChEMBL document CHEMBL1201862

- Test system: A549
- method: NCI tumour cell line growth inhibition, 48 h
Activity calls are given as the source filed them. Cut-off read from the data, not from the text of the source: active = GI50 up to about 1.1 µM and inactive = higher.
Valid outcomes are listed here; reply with one: Yes = active, No = inactive

Consider the following illustrative entries.
[[record]]
molecule = "COc1cc2ccc3c4cc(OC)c(OC(C)C)cc4c[n+](C)c3c2cc1OC"
assigned_category = "No"

[[record]]
molecule = "ClCc1nc2cc(Cl)ccc2o1"
assigned_category = "No"

[[record]]
molecule = "O=C(/C=C/c1c(O)ccc2ccccc12)c1ccc2ccccc2c1"
assigned_category = "No"


Per the assay record, what outcome was assigned to CCCCCC(/C=C/[C@@H]1[C@@H](C(O)CCCCCC(=O)OC)C(=O)C[C@H]1O[Si](C)(C)C(C)(C)C)OCOCCOC (stereo partly specified) ?
No

Per the assay record, what outcome was assigned to OCCCc1cc(O)c2c(c1)C(CO)C(c1ccc(O)c(O)c1)O2 (stereo unspecified) ?
No

Per the assay record, what outcome was assigned to C=CCc1c(O)c2nsnc2c2nsnc12 ?
No

Per the assay record, what outcome was assigned to COc1c(NC(C)=O)cc(C)cc1NC(C)=O ?
No

----------
- Tested on: ACHN
- method: NCI tumour cell line growth inhibition, 48 h
Activity calls are given as the source filed them. No stated cut-off is given here; in the data, active = GI50 up to about 1.1 µM and inactive = higher.
Valid outcomes are listed here; reply with one: active, inactive

Consider the following illustrative entries.
[[record]]
compound = "COc1ccnc2c1C(=O)c1nc3ccccc3c3ccnc-2c13"
assigned_category = "active"

[[record]]
compound = "CCN1CCCn2c(=O)[nH]c3cc(Br)cc1c32"
assigned_category = "inactive"


Per the assay record, what outcome was assigned to COc1ccc(C2N3CCCCC3[C@@H]3c4[nH]c5ccccc5c4CCN23)c(OC)c1 (stereo not given in full) ?
inactive

Per the assay record, what outcome was assigned to CS(=O)(=O)c1ccc(COP(N)(=O)N(CCCl)CCCl)cc1 (stereo not given) ?
inactive

Per the assay record, what outcome was assigned to CC1=CC(=O)C[C@]2(C)[C@@H](O)CC(C(C)CO)C[C@@H]12 (stereo not given in full) ?
inactive

Per the assay record, what outcome was assigned to O=C(Nc1cccc(C(F)(F)F)c1)O/N=C(/Cl)CCl ?
inactive

Per the assay record, what outcome was assigned to COc1ccc(C(CC(=O)c2cccs2)C(=O)c2ccc3c(c2)OCO3)cc1 (stereo not given) ?
inactive

Per the assay record, what outcome was assigned to N#CSC#CCCC#CSC#N ?
inactive

Per the assay record, what outcome was assigned to CCCN1C(=O)CNC(=O)c2[nH]cnc21 ?
inactive

Per the assay record, what outcome was assigned to O=C(O)c1ccc(Nc2cnc3cc(C(F)(F)F)ccc3n2)cc1 ?
inactive

----------
- System: HCT-116
- method: NCI tumour cell line growth inhibition, 48 h
The source made the active and inactive calls. Rule as the data show it: active = GI50 up to about 1.1 µM and inactive = higher.
Valid outcomes are listed here; reply with one: active, inactive

[[record]]
molecule = "N#Cc1ccc(/C=C2\\Cc3ccccc3C2=O)cc1"
assigned_category = "inactive"


Per the assay record, what outcome was assigned to CC1OC(NCCNCCNC2OC(C)C(O)C(O)C2O)C(O)C(O)C1O (stereo not given) ?
inactive

Per the assay record, what outcome was assigned to COc1ccc(OC)c(CCc2ccccc2CC(=O)O)c1 ?
inactive

Per the assay record, what outcome was assigned to COc1cccc(-c2cc(O)c3cc(N4CCOCC4)ccc3n2)c1 ?
active

Per the assay record, what outcome was assigned to O=C(/C=C(\O)C(=O)O)/C=C(\O)c1ccccc1Cl ?
inactive

Per the assay record, what outcome was assigned to O=C(CSc1nnc(-c2ccc(/N=C\c3ccc(Cl)cc3)cc2)o1)Nc1ccccc1 ?
inactive
